For each of the compounds below, state its IC50.
Assay: Inhibition of sweet almonds beta-D-glucosidase
Set-up: species or system Prunus dulcis
Entry rule: numbers only, all in µM.

Which IC50 value is on record for CC(C)=CCc1c(O)c(CC=C(C)C)c2oc(-c3ccc4c(c3)OC(C)(C)C=C4)c(O)c(=O)c2c1O ?
422

Which IC50 value is on record for C=C(C)[C@@H](O)Cc1ccc(-c2oc3c4c(c(CC=C(C)C)c(O)c3c(=O)c2O)OC(C)(C)CC4)cc1O ?
431

Which IC50 value is on record for CC(C)=CCc1ccc(-c2oc3c(CC=C(C)C)c(O)c4c(c3c(=O)c2O)OC(C)(C)CC4)cc1O ?
317

Which IC50 value is on record for C=C(C)[C@@H](O)Cc1ccc(-c2oc3c(CC=C(C)C)c(O)c4c(c3c(=O)c2O)OC(C)(C)CC4)cc1O ?
671

Which IC50 value is on record for C=C(C)[C@@H](O)Cc1ccc(-c2oc3c(CC=C(C)C)c(O)c(CC=C(C)C)c(O)c3c(=O)c2O)cc1O ?
431

Which IC50 value is on record for CC(C)=CCc1ccc(-c2oc3c(CC=C(C)C)c(O)c(CC=C(C)C)c(O)c3c(=O)c2O)cc1O ?
117

###

Assay: Inhibition of jack bean beta-D-mannosidase
Parameters: species or system Canavalia ensiformis
For each of the compounds below, state its pIC50.
Friendly reminder that pIC50 comes from taking -log10 of the concentration in mol/L.

Which pIC50 value is on record for C=C(C)[C@@H](O)Cc1ccc(-c2oc3c(CC=C(C)C)c(O)c(CC=C(C)C)c(O)c3c(=O)c2O)cc1O ?
3.63

Which pIC50 value is on record for CC(C)=CCc1ccc(-c2oc3c(CC=C(C)C)c(O)c4c(c3c(=O)c2O)OC(C)(C)CC4)cc1O ?
3.29

Which pIC50 value is on record for CC(C)=CCc1ccc(-c2oc3c(CC=C(C)C)c(O)c(CC=C(C)C)c(O)c3c(=O)c2O)cc1O ?
3.72

Which pIC50 value is on record for CC(C)=CCc1c(O)c(CC=C(C)C)c2oc(-c3ccc4c(c3)OC(C)(C)C=C4)c(O)c(=O)c2c1O ?
3.45

###

For each of the compounds below, state its pIC50.
Assay: Inhibition of yeast alpha-D-glucosidase
Set-up: species or system Saccharomyces
Friendly reminder that pIC50 comes from taking -log10 of the concentration in mol/L.

Which pIC50 value is on record for CC(C)=CCc1c(O)c(CC=C(C)C)c2oc(-c3ccc4c(c3)OC(C)(C)C=C4)c(O)c(=O)c2c1O ?
4.95

Which pIC50 value is on record for CC(C)=CCc1ccc(-c2oc3c(CC=C(C)C)c(O)c(CC=C(C)C)c(O)c3c(=O)c2O)cc1O ?
5.38

Which pIC50 value is on record for C=C(C)[C@@H](O)Cc1ccc(-c2oc3c4c(c(CC=C(C)C)c(O)c3c(=O)c2O)OC(C)(C)CC4)cc1O ?
4.67

Which pIC50 value is on record for CC(C)=CCc1ccc(-c2oc3c4c(c5c(c3c(=O)c2O)OC(C)(C)CC5)OC(C)(C)CC4)cc1O ?
4.36

Which pIC50 value is on record for C=C(C)[C@@H](O)Cc1ccc(-c2oc3c(CC=C(C)C)c(O)c4c(c3c(=O)c2O)OC(C)(C)CC4)cc1O ?
4.62

Which pIC50 value is on record for C=C(C)[C@@H](O)Cc1ccc(-c2oc3c(CC=C(C)C)c(O)c(CC=C(C)C)c(O)c3c(=O)c2O)cc1O ?
5.12

Which pIC50 value is on record for CC(C)=CCc1ccc(-c2oc3c(CC=C(C)C)c(O)c4c(c3c(=O)c2O)OC(C)(C)CC4)cc1O ?
4.77

Which pIC50 value is on record for OC[C@H]1NC[C@H](O)[C@@H](O)[C@@H]1O ?
3.37
